measurement target: Par3 PDZ3 (rat, UniProt Q9Z340 582-685)
Sequence (Q9Z340 582-685): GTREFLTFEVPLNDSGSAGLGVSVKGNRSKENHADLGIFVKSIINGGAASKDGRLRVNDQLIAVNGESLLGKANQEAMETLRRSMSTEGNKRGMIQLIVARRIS
method notes: FP
Ends that are not written are not given here.
attribute measured: Kd

So, MRGDVSGFSL (also: FITC label, position not given here) [FITC-labeled Par6α PBM peptide] ? Its Kd was 172000 nM

So, VEEHGPAITL (also: FITC label, position not given here) [FITC-labeled Par6γ PBM peptide] ? Its Kd was 1300 nM

So, LEEDGTIITL (also: FITC label, position not given here) [FITC-labeled Par6β PBM peptide] ? Its Kd was 1100 nM
